Collected binding signal values appear next to each entry.
Target: OsWOX13 (Oryza sativa, UniProt Q5QMM3 1-267)
Sequence: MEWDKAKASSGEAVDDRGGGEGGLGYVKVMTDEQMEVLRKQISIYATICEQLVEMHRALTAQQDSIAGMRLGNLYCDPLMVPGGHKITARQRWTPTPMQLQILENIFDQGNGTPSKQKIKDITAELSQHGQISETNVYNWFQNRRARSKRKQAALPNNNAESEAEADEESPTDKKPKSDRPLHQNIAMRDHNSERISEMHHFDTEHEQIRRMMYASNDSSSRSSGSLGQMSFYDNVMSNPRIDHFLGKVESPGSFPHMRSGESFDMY
Assay: protein-binding microarray (RPBM); PBS, 2% BSA, 51.3 ng/ul salmon testes DNA, 50 uM zinc acetate, 200 nM TF, 25 C, 1 h; high values mean tight binding
Conditions: protein: recombinant; tags: N-terminal polyhistidine and DsRed monomer fusion (pET32a); label: CyDye5-dUTP incorporated in the synthesized complementary strand; 3' TTTTT single-stranded linker to array surface; dsDNA, one strand shown
Whole data set: some 35,000 sequences, median “fluorescence intensity (a.u.)” near 10,000, cut for the highest 2% near 52,000. What follows is part of a selection rich in the highest values, with near analogues and random picks from the rest.

Solved cases (6 shown):
TTTAGTATATAATAGATAGATAGATAGAAGATTTGTACTACGGAGTCACCTAGTGCAG | 4500 fluorescence intensity (a.u.)
CAAAATTAAACTTTAAAATTCAGACTTCAGACTCCAGTGCCGGAGTCACCTAGTGCAG | 13400 fluorescence intensity (a.u.)
CTACTATCAATCGACCAATTCCAATCTCATCGTTACAGGACGGAGTCACCTAGTGCAG | 4190 fluorescence intensity (a.u.)
AAACTAAATTTAGACAGGAGTTCAGGTGATGAGTCAATGGCGGAGTCACCTAGTGCAG | 36800 fluorescence intensity (a.u.)
GCTTGACGACACCATTCGGATTGTTCCATCACTTCCATACCGGAGTCACCTAGTGCAG | 3540 fluorescence intensity (a.u.)
GGTGACAGTTTGGTTAGTGACAAATAGTTACATTCTCGTTCGGAGTCACCTAGTGCAG | 5070 fluorescence intensity (a.u.)

Item CTGTTTGATTTAGCTTAGGATTATTAGGTGTAAGCTGAAACGGAGTCACCTAGTGCAG ; assay system OsWOX13 (Oryza sativa, UniProt Q5QMM3 1-267); binding signal reported as 3910 fluorescence intensity (a.u.)

Reported binding signal (OsWOX13 (Oryza sativa, UniProt Q5QMM3 1-267)) for entry TATCACTAATAATTTAGCTCAGTTTGACAAGACGGATATCCGGAGTCACCTAGTGCAG is 4380 fluorescence intensity (a.u.)

Note to self: binding signal of TTGGGTGGCAATTATTAATCAGTCATGTCATTCAACTAGACGGAGTCACCTAGTGCAG with OsWOX13 (Oryza sativa, UniProt Q5QMM3 1-267) was 11700 fluorescence intensity (a.u.)

Entry TTGAATGACTACGAATTTGTTTAAATATTTGCATTCCATCCGGAGTCACCTAGTGCAG under OsWOX13 (Oryza sativa, UniProt Q5QMM3 1-267) had binding signal of 7180 fluorescence intensity (a.u.)

Response field binding signal (OsWOX13 (Oryza sativa, UniProt Q5QMM3 1-267)) for item GTGCTCTTTAATTATCACTTTGTGCGCACTTTTCTTTGATCGGAGTCACCTAGTGCAG : 6410 fluorescence intensity (a.u.)

The sequence TTGCTAATGACGGATTAATTAGGCTTAATAAATTCGTCTCCGGAGTCACCTAGTGCAG on OsWOX13 (Oryza sativa, UniProt Q5QMM3 1-267): binding signal was 33900 fluorescence intensity (a.u.)
